System: CEM cells HIV-1 protection, formazan growth assay
test_description: NCI AIDS Antiviral Assay;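 active = compounds giving half or more protection of infected cells from virus-caused growth loss, again on retest; inactive = the rest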
In this exercise, the only acceptable responses are TRUE for active, FALSE for inactive

Per the records of this test, what outcome belongs to COC(=O)c1cc(C(=CCCBr)c2cc(Cl)c(OC)c(C(=O)OC)c2)cc(Cl)c1OC ?
TRUE

###

// values below are reported pIC50
Test system: CEM cells HIV-1 protection, formazan growth assay
test_description: NCI AIDS Antiviral Assay
condition_context: measured here: growth of uninfected CEM cells
pIC50: −log10 of the molar value.

Previously resolved entries follow.
COc1ccc(N2C(=O)[C@@H](N=[N+]=[N-])[C@@H]2[C@H]2COC(C)(C)O2)cc1 ... < 3.39
Cc1nn(C(=O)CC(=O)Nc2ccc(Cl)cc2)c(C)c1N=Nc1ccccc1C(=O)O ... < 4.37
O=C1CN(c2cccc(C(F)(F)F)c2)C(=O)CN1CCN1CC(=O)N(c2cccc(C(F)(F)F)c2)CC1=O ... < 3.70

// below: pIC50 requested for another compound
Return reported pIC50. Input compound: CC(=O)C(C(=O)C(C)(C)C)C(=O)C(C)(C)C
< 3.70

###

Test system: CEM cells HIV-1 protection, formazan growth assay
test_description: NCI AIDS Antiviral Assay
condition_context: measured here: growth of uninfected CEM cells
Collected IC50 values appear next to each entry.

CC(C)c1cc2c(cc1S(=O)(=O)O)[C@@]1(C)CCC[C@@](C)(C(=O)O)C1CC2 (some centres undefined) ... > 200 µM
C/C(CC(=O)Nc1cccc(Cl)c1C)=N\NC(N)=S ... > 120 µM
O=C(NC1C=Nc2ccc(Cl)cc2NC1=O)c1ccc2ccccc2c1 (centres undefined) ... > 200 µM

Indicate its recorded IC50; the compound in question is NC(=O)C(=CNC(=S)NCc1ccccc1)C(N)=O
> 200 µM

###

System: CEM cells HIV-1 protection, formazan growth assay
test_description: NCI AIDS Antiviral Assay
condition_context: measured here: growth of uninfected CEM cells
pIC50: −log10 of the molar value.
assay_metric: pIC50

Below are worked cases with known answers.
C1=NCCNCCN=Cc2ccc(cc2)OCc2cccc(n2)COc2ccc1cc2 ... < 4.00
CCN(CC)CCOC(=O)OCCCCOC(=O)OCCN(CC)CC ... < 3.70

Input NC(=O)c1cccc(OCC(O)CO)c1 (stereo unspecified) , output reported pIC50.
< 3.70

Please supply the value of reported pIC50 for the item Cc1cc(=O)[nH]c(-n2[nH]c(C)c(CCO)c2=O)n1
< 3.70

Consider the compound CC1=Nc2cc(C)c(C)cc2NC(=O)C1 and give its recorded pIC50.
< 3.70

Please give the documented pIC50 of CCOC(=O)c1cccc([N+](=O)[O-])c1N
< 3.70

###

Test system: CEM cells HIV-1 protection, formazan growth assay
test_description: NCI AIDS Antiviral Assay;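 active = compounds giving half or more protection of infected cells from virus-caused growth loss, again on retest; inactive = the rest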
Method: The ability of compounds to protect human CEM cells from HIV-1 infection is measured as a screen for new compounds capable of inhibiting the HIV virus. Five concentrations of drug were tested on uninfected and infected cells and cell growth was measured using a soluble formazan assay. […] Compounds that provided at least 50% protection were retested. Compounds that provided at least 50% protection on retest were listed as moderately active. […]
Reply using exactly one outcome from active, inactive

Field: example entries. Status: answers known.
COC(=O)C(C(=O)C(=O)Nc1ccccc1OC)c1csc(-n2nc(-c3ccccc3)cc2-c2ccccc2)n1 (stereo not given) ... inactive
CN(C)c1ncnc2c1ncn2C1OC(CO)CC1F (stereo not given) ... active
COc1ccc(/C(=C/n2ccnc2)C(=O)c2ccc(OC)c(OC)c2)cc1 ... inactive
C=CCC1C(O[Si](C)(C)C(C)(C)C)C(CO[Si](C)(C)C(C)(C)C)OC1n1ccc(=O)[nH]c1=O (stereo not given) ... inactive

How did this test come out for O=C(Cc1nc2ccc(C(=O)c3ccccc3)cc2[nH]c1=O)C(=O)Nc1ccc(C(F)(F)F)cc1[N+](=O)[O-] ?
inactive

###

System: CEM cells HIV-1 protection, formazan growth assay
test_description: NCI AIDS Antiviral Assay
pEC50: −log10 of the molar value.
assay_metric: pEC50

O=C(O)C(O)(O)C(O)(O)C(=O)O ... < 3.70
O=C(CCCN1CCC2(CC1)C(=NC1CCCCC1)NC(=O)N2c1ccccc1)c1ccc(F)cc1 ... < 3.70
COC(C(=O)C(O)C(C)O)C1Cc2cc3cc(OC4CC(OC(C)=O)C(OC5CC(O)C(OC)C(C)O5)C(C)O4)cc(O)c3c(O)c2C(=O)C1OC1CC(OC2CC(OC3CC(C)(O)C(OC(=O)C(C)C)C(C)O3)C(O)C(C)O2)C(O)C(C)O1 (centres undefined) ... < 5.68

Would you kindly look at the next entry?
Query pEC50 for Cc1ccc(-c2cc(=O)c(=O)[nH][nH]2)cc1
< 3.70

###

Tested on: CEM cells HIV-1 protection, formazan growth assay
test_description: NCI AIDS Antiviral Assay
Below is a list of entries, each paired with its recorded EC50 value.

CC(C)(c1ccc(OC#N)cc1)c1ccc(OC#N)cc1 ... > 67.6 µM
[N-]=[N+]=Nc1c(C=O)c(=O)n(-c2ccccc2)c2ccccc12 ... > 200 µM
COc1ccc(C23OC2Oc2cc(OC4CCCCO4)ccc2C3=O)cc1 (stereo unspecified) ... > 70.8 µM
CC(C)(C)C(=O)C(c1ccc(-c2cscn2)cc1)c1ccc(-c2cscn2)cc1 ... > 2.51 µM
CCOC(=O)c1[nH]c2nc(SC)nc(Nc3ccccc3Cl)c2c1N ... > 200 µM

Indicate its recorded EC50; the compound in question is CC(C)CCCC(C)[C@H]1CC[C@H]2[C@@H]3CC[C@H]4C[C@@H](CCC=C(c5cc(Cl)c(OCc6ccc(B(O)O)cc6)c(C(=O)O)c5)c5cc(Cl)c(OCc6ccc(B(O)O)cc6)c(C(=O)O)c5)CC[C@]4(C)[C@H]3CC[C@]12C (stereo partly specified)
5.89 µM

Query EC50 for Cc1cn(C2OC(C)(CO)C(O)C2O)c(=O)[nH]c1=O (stereo unspecified)
> 912 µM

Given O=C1Cc2c([nH]c3ccccc23)-c2cc(Br)ccc2N1 , respond with its EC50.
> 41.7 µM

Please supply the value of reported EC50 for the item O=C(O)CN1CCSc2ccccc2CN(CC(=O)O)CCSc2ccccc2C1
> 562 µM

Give reported EC50 value for COc1cc2c(c(OC)c1)C(C)=NC(C)C2 (stereo unspecified)
> 200 µM

Give the measured EC50 for O=C1OC(C(=O)O)c2ccc3c(c21)OCO3 (stereo unspecified)
> 398 µM

Supply measured EC50 of CC1=NC(c2ccccc2)(C2(c3ccccc3)C(c3ccccc3)=C2c2ccccc2)C(=O)O1 (stereo unspecified) in your reply.
> 6.17 µM

Return reported EC50. Input compound: CNC(=O)OC(C)CN1c2ccccc2Sc2ccc(Cl)cc21 (stereo unspecified)
> 200 µM

Name the recorded EC50 of the item Cc1ccc(S(=O)(=O)n2c3ccc(Br)cc3c3nc4ccccc4nc32)cc1 in your answer.
> 100 µM

Report EC50 for CCn1c2ccccc2c2cc(N=Nc3ccc(C#N)cc3)ccc21
10.7 µM

Give reported EC50 value for CC(C)(CO)CNc1nc(N)nc(Cl)c1/C=N/O
> 200 µM

Determine from records and report EC50 for O=c1nc(N2CCCC2)oc2cc3ccccc3cc12
> 200 µM

Consider the compound CN1Cc2ccccc2[C@H]2C(c3ccccc3)=NN(c3ccccc3)[C@H]21 and give its recorded EC50.
> 200 µM

Give EC50 for the following compound: CCOC(=O)c1nc2ccc(OC)cc2c2c1Cc1ccccc1-2
> 22.4 µM

Could you please provide reported EC50 for N#Cc1c(N)c(C(=O)Nc2ccc(S(N)(=O)=O)cc2)n2c1CCC2 ? Thanks!
> 200 µM

Report measured EC50; entry is CCOP(=O)(OCC)/C(C#N)=C/c1cccs1
77.6 µM

Give the reported value of EC50 for this record: CC(C)=CCN1CCCn2c(=S)[nH]c3cccc(c32)C1=O
> 200 µM

Find the measured EC50 of c1ccc(NNN2NC(c3ccccc3)C2c2ccccc2)cc1 (stereo unspecified) and report it.
> 200 µM

Please report EC50 for the following compound: Fc1ccc(C2NC(c3ccc(Cl)cc3)c3cccn3-c3sccc32)cc1 (stereo unspecified)
> 100 µM

Supply measured EC50 of CC1NCC(O)C(O)C1O (stereo unspecified) in your reply.
> 49 µM

Write down EC50 measured for item O=C1CCCc2cc3c(cc21)CC1(C3)Cc2ccc3c(c2C1)C(=O)CCC3 (stereo unspecified)
> 200 µM

###

Test system: CEM cells HIV-1 protection, formazan growth assay
test_description: NCI AIDS Antiviral Assay
condition_context: measured here: growth of uninfected CEM cells
assay_metric: pIC50
To interpret pIC50, take it as minus log10 of a concentration measured in moles per litre.

CC1CN(c2cc3c(cc2F)c(=O)c(C(=O)O)cn3-c2ccc(N3CCN(C)CC3)cn2)CC(C)N1 (stereo not drawn) ... 3.91

Give reported pIC50 value for Sc1ccccc1N=Cc1cccs1
4.03

# credit: PubChem BioAssay AID179
